target: Cyclin-dependent kinase 2/cyclin E1 (Homo sapiens); assay: Inhibition of His-tagged CDK2/Cyclin-E1 (unknown origin) expressed in baculovirus infected Sf9 insect cells using histone H1 as substrate measured in presence of [gamma-33P]ATP; type: cell-based
pIC50: −log10 of the molar value.
value_kind: pIC50

CC(C)c1n[nH]c2c(NCc3ccc(-c4ccccn4)cc3)nc(SCCC(N)=O)nc12; 7.72

A = CCC(O)CSc1nc(NCc2ccc(-c3ccccn3)cc2)c2[nH]nc(C(C)C)c2n1 (stereo not given)
B = CC(C)c1n[nH]c2c(NCc3ccc(-c4ccccn4)cc3)nc(SCC(O)CN3CCNCC3)nc12 (stereo not given)
C = CC(C)c1n[nH]c2c(NCc3ccc(-c4ccccn4)cc3)nc(SCCCN(C)C)nc12
D = CC(C)c1n[nH]c2c(NCc3ccc(-c4ccccn4)cc3)nc(SCC3CNC(=O)O3)nc12 (stereo not given)
Prompt: Let's sort these by pIC50, smallest first. Go ahead? List labels; respect the requested ordering.
Response: B, C, A, D

====

Each entry below carries its reported IC50.
test system: U2932; test: Antiproliferative activity against human U2932 cells assessed as growth inhibition measured after 72 hrs by calcein AM dye-based fluorescence assay; assay type: functional, cell-based; details: U2932, 72 h
Note: unit nM is implicit; provide only the numeric part.

CC(C)c1n[nH]c2c(NCc3ccc(-c4ccccn4)cc3)nc(SCCN)nc12; 30

Next molecule, IC50 to be filled in.
Noted for CCc1cnn2c(NCc3ccc[n+]([O-])c3)cc(N3CCCC[C@H]3CCO)nc12 [DINACICLIB] : its IC50 reads 11

====

target: Cyclin-dependent kinase 2/cyclin E1 (Homo sapiens); assay: Inhibition of His-tagged CDK2/Cyclin-E1 (unknown origin) expressed in baculovirus infected Sf9 insect cells using histone H1 as substrate measured in presence of [gamma-33P]ATP
pIC50: −log10 of the molar value.
value_kind: pIC50

Record excerpt, results attached:
CCC(CO)Sc1nc(NCc2ccc(-c3ccccn3)cc2)c2[nH]nc(C(C)C)c2n1 (stereo not given); 6.82
CC(C)c1n[nH]c2c(NCc3ccc(-c4ccccn4)cc3)nc(SCCN(C)C)nc12; 7.11
CNCCSc1nc(NCc2ccc(-c3ccccn3)cc2)c2[nH]nc(C(C)C)c2n1; 7.89

I = CC(C)c1n[nH]c2c(NCc3ccc(-c4ccccn4)cc3)nc(SC(CO)C(C)C)nc12 (stereo not given)
II = CC(C)c1n[nH]c2c(NCc3ccc(-c4ccccn4)cc3)nc(SCCCN)nc12
Prompt: Select the item with the higher value of pIC50 from the options I and II listed. Pick one and reply with its label.
Response: II

====

test system: THP-1; experiment: Antiproliferative activity against human THP1 cells assessed as growth inhibition measured after 72 hrs by calcein AM dye-based fluorescence assay; format: functional, cell-based; settings: THP-1, 72 h
pIC50: −log10 of the molar value.
value_kind: pIC50

A = CC(C)c1n[nH]c2c(NCc3ccc(-c4ccccn4)cc3)nc(SCCN)nc12
B = CCc1cnn2c(NCc3ccc[n+]([O-])c3)cc(N3CCCC[C@H]3CCO)nc12
Prompt: Select the item with the higher value of pIC50 from the options A and B listed. Pick one and reply with its label.
Response: B

====

tested on: HT; experiment: Antiproliferative activity against human HT cells measured after 72 hrs by calcein AM dye-based fluorescence assay; format: functional
Each entry below carries its reported GI50.
Note: unit nM is implicit; provide only the numeric part.

Record excerpt, results attached:
CC(C)c1n[nH]c2c(NCc3ccc(-c4ccccn4)cc3)nc(SC3CCCCC3O)nc12 (stereo not given); 636
CC(C)c1n[nH]c2c(NCc3ccc(-c4ccccn4)cc3)nc(SCC(N)=O)nc12; 192
CNCCSc1nc(NCc2ccc(-c3ccccn3)cc2)c2[nH]nc(C(C)C)c2n1; 56
CC(C)c1n[nH]c2c(NCc3ccc(-c4ccccn4)cc3)nc(SCCNC(=N)N)nc12; 390

Next molecule, GI50 to be filled in.
# CC(C)c1n[nH]c2c(NCc3ccc(-c4ccccn4)cc3)nc(SCC(N)CN)nc12 (stereo not given) with HT: GI50 is 480

====

experiment: Antiproliferative activity against human OCI-Ly2 cells measured after 72 hrs by calcein AM dye-based fluorescence assay; assay type: functional
Each entry below carries its reported GI50.
Note: unit nM is implicit; provide only the numeric part.

Record excerpt, results attached:
CC(O)CSc1nc(NCc2ccc(-c3ccccn3)cc2)c2[nH]nc(C(C)C)c2n1 (centres undefined); 152
CC(C)c1n[nH]c2c(NCc3ccc(-c4ccccn4)cc3)nc(SCCn3ccnc3)nc12; 145
CC(C)c1n[nH]c2c(NCc3ccc(-c4ccccn4)cc3)nc(SCCC(N)=O)nc12; 84

Noted for CNCCSc1nc(NCc2ccc(-c3ccccn3)cc2)c2[nH]nc(C(C)C)c2n1 : its GI50 reads 92

Noted for CC(C)c1n[nH]c2c(NCc3ccc(-c4ccccn4)cc3)nc(SCC3CNC(=O)O3)nc12 (centres undefined) : its GI50 reads 53

Noted for CC(C)c1n[nH]c2c(NCc3ccc(-c4ccccn4)cc3)nc(SCC(N)=O)nc12 : its GI50 reads 163

Noted for CC(C)c1n[nH]c2c(NCc3ccc(-c4ccccn4)cc3)nc(SC[C@H](O)CN)nc12 : its GI50 reads 99

Noted for CC(C)c1n[nH]c2c(NCc3ccc(-c4ccccn4)cc3)nc(SCCNC(=N)N)nc12 : its GI50 reads 812

Noted for CC(C)c1n[nH]c2c(NCc3ccc(-c4ccccn4)cc3)nc(SC(CO)C(C)C)nc12 (centres undefined) : its GI50 reads 1000

====

system: CCRF-CEM; assay: Antiproliferative activity against human CEM cells assessed as growth inhibition measured after 72 hrs by calcein AM dye-based fluorescence assay; assay type: functional, cell-based
value_kind: IC50 (nM)

I = CCc1cnn2c(NCc3ccc[n+]([O-])c3)cc(N3CCCC[C@H]3CCO)nc12 [DINACICLIB]
II = CC(C)c1n[nH]c2c(NCc3ccc(-c4ccccn4)cc3)nc(SCCN)nc12
Prompt: Given the two records I and II , choose the one whose IC50 value is lower. Pick one and reply with its label.
Response: I
(I: 7 nM, II: 33 nM)

====

tested on: HCT-116; assay: Antiproliferative activity against human HCT116 cells assessed as growth inhibition measured after 72 hrs by calcein AM dye-based fluorescence assay; assay type: functional, cell-based; conditions: HCT-116, 72 h
pIC50: −log10 of the molar value.
value_kind: pIC50

I = CCc1cnn2c(NCc3ccc[n+]([O-])c3)cc(N3CCCC[C@H]3CCO)nc12 [DINACICLIB]
II = CC(C)c1n[nH]c2c(NCc3ccc(-c4ccccn4)cc3)nc(SCCN)nc12
Prompt: Given the two records I and II , choose the one whose pIC50 value is lower. Pick one and reply with its label.
Response: II
(II: 7.66, I: 8.15)

====

system: HT; experiment: Antiproliferative activity against human HT cells assessed as growth inhibition measured after 72 hrs by calcein AM dye-based fluorescence assay; assay type: functional, cell-based
Each entry below carries its reported IC50.
Note: unit nM is implicit; provide only the numeric part.

CC(C)c1n[nH]c2c(NCc3ccc(-c4ccccn4)cc3)nc(SCCN)nc12; 19

Next compound, IC50 to be filled in.
Noted for CCc1cnn2c(NCc3ccc[n+]([O-])c3)cc(N3CCCC[C@H]3CCO)nc12 : its IC50 reads 19

====

system: K562; test: Antiproliferative activity against human K562 cells assessed as growth inhibition measured after 72 hrs by calcein AM dye-based fluorescence assay; assay type: functional, cell-based; details: K562, 72 h
value_kind: IC50 (nM)

I = CCc1cnn2c(NCc3ccc[n+]([O-])c3)cc(N3CCCC[C@H]3CCO)nc12
II = CC(C)c1n[nH]c2c(NCc3ccc(-c4ccccn4)cc3)nc(SCCN)nc12
Prompt: Given the two records I and II , choose the one whose IC50 value is lower. Pick one and reply with its label.
Response: I

====

experiment: Antiproliferative activity against human OCI-Ly2 cells measured after 72 hrs by calcein AM dye-based fluorescence assay; type: functional
Each entry below carries its reported GI50.
Note: unit nM is implicit; provide only the numeric part.

Record excerpt, results attached:
CC(C)c1n[nH]c2c(NCc3ccc(-c4ccccn4)cc3)nc(SCC(O)CO)nc12 (stereo not drawn); 22
CC(C)c1n[nH]c2c(NCc3ccc(-c4ccccn4)cc3)nc(SCCCN(C)C)nc12; 109

Next compound, GI50 to be filled in.
Noted for CCC(CO)Sc1nc(NCc2ccc(-c3ccccn3)cc2)c2[nH]nc(C(C)C)c2n1 (stereo not drawn) : its GI50 reads 181

====

biological target: Cyclin-dependent kinase 2/cyclin E1 (Homo sapiens); experiment: Inhibition of His-tagged CDK2/Cyclin-E1 (unknown origin) expressed in baculovirus infected Sf9 insect cells using histone H1 as substrate measured in presence of [gamma-33P]ATP
pIC50: −log10 of the molar value.
value_kind: pIC50

Record excerpt, results attached:
CC(C)c1n[nH]c2c(NCc3ccc(-c4ccccn4)cc3)nc(SCCCO)nc12; 7.68
CC(C)c1n[nH]c2c(NCc3ccc(-c4ccccn4)cc3)nc(SCCN)nc12; 8.70

P = CC(C)c1n[nH]c2c(NCc3ccc(-c4ccccn4)cc3)nc(SCC(O)CO)nc12 (configuration not stated)
Q = CC(C)c1n[nH]c2c(NCc3ccc(-c4ccccn4)cc3)nc(SC(C)C(C)O)nc12 (configuration not stated)
R = CC(C)c1n[nH]c2c(NCc3ccc(-c4ccccn4)cc3)nc(SCC(O)CN)nc12 (racemic)
S = CC(C)c1n[nH]c2c(NCc3ccc(-c4ccccn4)cc3)nc(S)nc12
T = CC(C)c1n[nH]c2c(NCc3ccc(-c4ccccn4)cc3)nc(SCC(O)C(F)(F)F)nc12 (configuration not stated)
Prompt: Let's sort these by pIC50, smallest first. Go ahead? List labels; respect the requested ordering.
Response: S, T, R, P, Q
(S: 6.25, T: 6.88, R: 7.51, P: 8.00, Q: 8.52)

Taken from ChEMBL document CHEMBL4385606.
